Tested on: U87 cells
Settings: Table S4 C; Figure 3 24 h; peptide added 2 µM
READOUT_KIND: 2-Way ANOVA, MTS assay, treatment group compared to untreated

1. GECTYAGRKRRRPLQK [AHRR8-24] : * (p < 0.05 - *)
2. VLERAKRRAV [AKIP1_27-37] : * (p < 0.05 - *)

====

Tested on: U87 cells
Conditions: Table S4 C; Figure 3 24 h; peptide added 8 µM
READOUT_KIND: 2-Way ANOVA, MTS assay, treatment group compared to untreated

1. VLERAKRRAV [AKIP1_27-37] : * (p < 0.05 - *)
2. GECTYAGRKRRRPLQK [AHRR8-24] : * (p < 0.05 - *)
